assay: binders of probe aFGF2 on microarray, primary screen, stem cell growth factor project, biochemical, small-molecule microarray, fluorescence 635/667 (AID 1067); details: higher = more signal;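 further: measures binding of biotinylated aFGF2 protein to printed compounds on slides; z-score merges feature fluorescence and signal-to-noise across triplicate slides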

{"compound": "O=C1[C@H]2[C@H]3[C@H](O)[C@H](O)CC(=NO[C@@H]4O[C@H](CO)[C@@H](O)[C@H](O)[C@H]4O)[C@@H]3CC[C@H]2C(=O)N1c1ccc(F)cc1F", "composite z-score": -0.125}
{"compound": "CCOC(=O)[C@H](Cc1ccccc1)NC(=O)CCC1CC(OC(=O)NCc2ccc3c(c2)OCO3)CC2(CCCC(COC(=O)NCc3cccc(C(F)(F)F)c3)O2)O1 (stereo not given in full)", "composite z-score": -0.0985}
{"compound": "O=C1C[C@@H](O)[C@@H](O)[C@@H]2[C@@H]3C(=O)N(Cc4ccc5c(c4)OCO5)C(=O)[C@@H]3CC[C@@H]12", "composite z-score": -0.149}
{"compound": "CN1C(=O)C2C=CC(C(O)C(c3ccccc3)c3ccccc3)N(NC(=O)OC(C)(C)C)C2C1=O (stereo not given)", "composite z-score": 0.448}
{"compound": "COc1ccc(O[C@H]2C=C[C@@H](c3ccccc3)O[C@@H]2CON=C[C@@H](C)[C@H](OCc2ccccc2)C(C)C)cc1", "composite z-score": -0.168}
{"compound": "C=C(COC)/C(=C/C[C@H](OC(=O)c1ccncc1)c1ccc(CO)o1)c1cc(C(=O)OC)ccc1OC", "composite z-score": 0.0026}
{"compound": "C[C@H](c1ccccc1)N1C(=O)[C@H]2[C@@H]3C(=CC[C@H]2C1=O)C(=O)[C@H]1O[C@H]1[C@H]3O", "composite z-score": -0.135}
{"compound": "CCc1cc2c(nc1CC)CCN(CCC(C)=NOC[C@@H](O)[C@H]1O[C@@H]3OC(C)(C)O[C@@H]3[C@H]1O)C2", "composite z-score": -0.148}
{"compound": "CC(=O)OC[C@H]1O[C@H](C#CCCCc2ccccc2)C=C[C@@H]1OC(C)=O", "composite z-score": -0.083}
{"compound": "C[C@@H]1CCC2C(=O)N(Cc3ccccc3)C[C@@H](O)CN2[C@H]1c1ccc(Br)cc1 (stereo not given in full)", "composite z-score": -0.145}
{"compound": "C=C(CCCC)C(=O)CC[C@@H](OC(C)=O)c1cccc(OCCO)c1", "composite z-score": -0.152}
{"compound": "COc1ccc(O[C@@H]2[C@H](O)CO[C@H]2C=CC#Cc2ccccc2)cc1", "composite z-score": -0.159}
{"compound": "COCCOC(=O)N1C(=O)[C@@]2(c3cc(C#Cc4ccc(OC)cc4)ccc31)[C@H](c1ccc(O)cc1)N1[C@H](c3ccccc3)[C@H](c3ccccc3)OC(=O)[C@H]1[C@@H]2C(N)=O", "composite z-score": -0.031}
{"compound": "COc1ccc(O[C@H]2C=C[C@@H](c3ccccc3)O[C@@H]2COC(=O)CCC(C)=NOC(C)CN2CCCCc3nc(C)c(C)cc32)cc1 (stereo not given in full)", "composite z-score": -0.164}
{"compound": "CS(=O)(=O)CCOC(=O)C1=CC(CCCO)=CC(c2cccs2)N(Cc2cccc(OC(F)(F)F)c2)C=C1C(=O)OCCS(C)(=O)=O (stereo not given)", "composite z-score": -0.0753}
{"compound": "O=C1c2ccccc2[C@@]2(Cc3ccccc3N(C3CC3)C2=O)[C@H](c2ccc(CO)cc2)N1Cc1ccccc1C(F)(F)F", "composite z-score": -0.0507}
{"compound": "COCC(=C=CC[C@@H](O)c1ccccc1OCCO)CCO", "composite z-score": 0.0201}
{"compound": "CC1(C)OCC(C(O)C2=CCCCC2=O)CO1 (stereo not given)", "composite z-score": -0.0607}
{"compound": "COc1ccc(O[C@H]2C=C[C@@H](c3ccccc3)O[C@@H]2COC(=O)CCC(C)=NOCC[C@@H]2C=C[C@H](OC(C)=O)[C@@H](COC(C)=O)O2)cc1", "composite z-score": -0.0363}
{"compound": "COC(=O)CC1OC1[C@H](C)[C@@H](OC)C(C)C (stereo not given in full)", "composite z-score": -0.201}
{"compound": "[N-]=[N+]=NCc1ccccc1C[C@]1(C(=O)NCc2ccccc2)N=C(c2ccc(OCCCO)cc2)O[C@H]1c1ccccc1N=[N+]=[N-]", "composite z-score": -0.0231}
{"compound": "COc1ccc([Si](C)(C)[C@H]2[C@H](CC(=O)N3CCC[C@H]3CO)O[C@@]3(C(=O)N(Cc4cccc(N5C(=O)COc6ccccc65)c4)c4ccccc43)[C@@H]2C)cc1", "composite z-score": -0.0148}
{"compound": "COc1ccc(-c2ccc3c(n2)CCCN3CC(O)CN2CCCc3nc(C)c(C)cc32)cc1 (stereo not given)", "composite z-score": 0.126}
{"compound": "Cc1ccc(F)cc1S(=O)(=O)N[C@@H]1CCN(Cc2ccc(CC(C)C)cc2)C1", "composite z-score": -0.214}
{"compound": "C[N+](C)(C)CCCCCCNC(=O)[C@@H]1C[C@@H]2C(=O)N3CCC[C@H]3C(=O)N2[C@@H]1c1cccc(OCCO)c1", "composite z-score": -0.169}
{"compound": "COc1ccc(COC(=O)NN=C2C[C@@H](O)[C@@H](O)[C@@H]3[C@@H]4C(=O)N(c5ccc(F)cc5F)C(=O)[C@@H]4CC[C@@H]23)cc1", "composite z-score": -0.0342}
{"compound": "O=C1[C@H]2[C@H]3[C@H](O)[C@H](O)CC(=NO[C@@H]4O[C@H](CO)[C@@H](O)[C@H](O)[C@H]4O)[C@H]3CC[C@H]2C(=O)N1Cc1ccc2c(c1)OCO2", "composite z-score": -0.104}
{"compound": "[N-]=[N+]=NCc1ccccc1[C@@H]1OC(c2ccc(OCCCO)cc2)=N[C@]1(Cc1ccccc1)C(=O)N1CCOCC1", "composite z-score": 0.122}
{"compound": "CCCCCN1CC=CC23O[C@@H]4C=CCOC(=O)[C@@H]4[C@H]2C(=O)N(C(CO)C(C)C)[C@@H]3C1=O (stereo not given in full)", "composite z-score": -0.141}
{"compound": "O=C1O[C@@H](c2ccccc2)[C@@H](c2ccccc2)N2[C@@H](c3ccc(O)cc3)[C@]3(C(=O)Nc4ccccc43)[C@@H](C(=O)O)[C@H]12", "composite z-score": -0.0969}
